system: HeLa; assay: Cytotoxicity against human HeLa cells after 24 hrs by calcein AM based spectrophotometric analysis; format: cell-based
Assay readout: Activity

> print(dat)
                                smiles.data  assay.value
1  O=C(O)[C@@H]1CSc2c(-c3cccc(C(F)(F)F)c3)c(COc3ccccc3)cc(=O)n21    Non-toxic
2  O=C(O)[C@@H]1CSc2c(-c3cccc(C(F)(F)F)c3)c(CNS(=O)(=O)c3cccc4ccccc34)cc(=O)n21    Non-toxic
3  O=C(O)[C@@H]1CSc2c(C3CC3)c(COc3cccc4ccccc34)cc(=O)n21    Non-toxic
4  O=C(O)[C@@H]1CSc2c(-c3cccc(C(F)(F)F)c3)c(Cc3cccc4ccccc34)cc(=O)n21    Non-toxic
5  COc1ccc2cc(Cc3cc(=O)n4c(c3-c3cccc(C(F)(F)F)c3)SC[C@H]4C(=O)O)ccc2c1    Non-toxic
6  O=C(O)[C@@H]1CSc2c(-c3cccc(C(F)(F)F)c3)c(COc3cccc4ccccc34)cc(=O)n21    Non-toxic

Now for a further molecule.
molecule O=C(O)[C@@H]1CSc2c(-c3cccc(C(F)(F)F)c3)c(Cc3cccc(OCc4ccc(F)cc4)c3)cc(=O)n21 , Activity observed: Non-toxic

Data provenance is ChEMBL document CHEMBL1759904.
